Biological target: human SGLT1 (Homo sapiens (Human), UniProt P13866)
Sequence (P13866 whole entry): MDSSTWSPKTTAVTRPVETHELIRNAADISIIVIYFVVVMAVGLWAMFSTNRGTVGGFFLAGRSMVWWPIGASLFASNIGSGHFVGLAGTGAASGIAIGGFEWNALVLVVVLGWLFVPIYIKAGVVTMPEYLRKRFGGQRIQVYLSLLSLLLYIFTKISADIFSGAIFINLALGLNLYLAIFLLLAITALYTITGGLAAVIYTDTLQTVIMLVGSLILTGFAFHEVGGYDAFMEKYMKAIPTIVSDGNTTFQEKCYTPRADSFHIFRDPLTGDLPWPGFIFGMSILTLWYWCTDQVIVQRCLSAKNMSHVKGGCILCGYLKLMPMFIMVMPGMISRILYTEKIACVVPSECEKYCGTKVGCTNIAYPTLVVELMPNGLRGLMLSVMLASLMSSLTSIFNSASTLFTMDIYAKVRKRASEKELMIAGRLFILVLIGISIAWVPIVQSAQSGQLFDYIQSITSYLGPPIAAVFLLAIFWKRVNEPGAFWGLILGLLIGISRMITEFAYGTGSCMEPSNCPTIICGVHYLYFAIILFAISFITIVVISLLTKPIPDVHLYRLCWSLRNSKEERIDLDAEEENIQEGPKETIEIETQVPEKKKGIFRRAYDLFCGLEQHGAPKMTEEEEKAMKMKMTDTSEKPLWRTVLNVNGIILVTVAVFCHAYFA
Assay: SGLT1 inhibitory activity: 14C-AMG uptake into CHO-K1 cell line stably expressing human SGLT1
Type: cell-based
Settings: CHO-K1, at 0.1 uM
Collected inhibition at 0.1 µM values appear next to each entry.
Could you give me the number in %? Just the number is fine.

{"columns": ["compound", "inhibition at 0.1 µM (%)"],
 "data": [
  ["O=C1CC[C@@H](C(=O)Nc2cc(-c3cccc(COCC(F)(F)F)c3)n(-c3ccccc3)n2)N1", 41],
  ["O=C1C[C@H](C(=O)Nc2cc(-c3cccc(CO[C@H]4CCOC4)c3)n(-c3ccccc3)n2)CN1", 1],
  ["O=C1C[C@H](C(=O)Nc2cc(-c3cccc(COC4CCOCC4)c3)n(-c3ccccc3)n2)CN1", 15],
  ["CCCc1cccc(-c2cc(NC(=O)[C@@H]3CNC(=O)C3)nn2CCc2ccccc2)c1", 45],
  ["C[C@@H](OCc1cccc(-c2cc(NC(=O)[C@@H]3CNC(=O)C3)nn2C2CCOCC2)c1)C(F)(F)F", 47],
  ["O=C1C[C@H](C(=O)Nc2cc(-c3cccc(OC(F)(F)F)c3)n(-c3cccc(O)c3)n2)CN1", 45],
  ["CCCN1C(=O)NC[C@H]1C(=O)Nc1cc(-c2cccc(OC(F)(F)F)c2)n(-c2ccccc2)n1", 38],
  ["COCCOc1cccc(-n2nc(NC(=O)[C@@H]3CNC(=O)C3)cc2-c2cccc(OC(F)(F)F)c2)c1F", 46],
  ["O=C1C[C@H](C(=O)Nc2cc(-c3cccc(COCC(F)(F)F)c3)n(-c3cc(Cl)ccc3F)n2)CN1", -17],
  ["COCc1cccc(-c2cc(NC(=O)[C@@H]3CNC(=O)C3)nn2-c2ccccc2)c1", 17]
]}

Give the reported value of inhibition at 0.1 µM for this record: CC1C(=O)NC(O)C1C(=O)Nc1cc(-c2cccc(OC(F)(F)F)c2)n(-c2ccc(F)cc2)n1 (racemic)
20

Give the reported value of inhibition at 0.1 µM for this record: `O=C1CC[C@H](C(=O)Nc2cc(-c3cccc(COCC(F)(F)F)c3)n(-c3ccccc3)n2)N1`
3

Give the reported value of inhibition at 0.1 µM for this record: `CCCc1cccc(-c2cc(NC(=O)C3CNC(=O)NC3)nn2-c2ccccc2)c1`
41

Give the reported value of inhibition at 0.1 µM for this record: `CCCc1cccc(-c2cc(NC(=O)[C@@H]3CNC(=O)CN3)nn2-c2ccccc2)c1`
19

Give the reported value of inhibition at 0.1 µM for this record: `O=C1C[C@H](C(=O)Nc2cc(-c3cccc(COC4COC4)c3)n(-c3ccccc3)n2)CN1`
18

Give the reported value of inhibition at 0.1 µM for this record: CCCc1cccc(-c2cc(NC(=O)C3CNC(=O)C3(C)C)nn2-c2ccccc2)c1 (stereo not drawn)
7

Give the reported value of inhibition at 0.1 µM for this record: `CCS(=O)(=O)Cc1cccc(-c2cc(NC(=O)[C@@H]3CNC(=O)C3)nn2-c2ccccc2)c1`
24

----------
Target: UniProt P13866
Experiment: SGLT1 inhibitory activity: 14C-AMG uptake into CHO-K1 cell line stably expressing human SGLT1
Format: cell-based
Settings: 14C-AMG uptake, CHO-K1 cells stably expressing human SGLT1
test.readout: pIC50
On this scale, pIC50 is minus log10 of a concentration expressed in M (mol/L).

Consider the worked cases shown below.
{"columns": ["molecule", "pIC50"],
 "data": [
  ["O=C1C[C@H](C(=O)Nc2cc(-c3cccc(OC(F)(F)F)c3)n(-c3ccccc3F)n2)CN1", 7.80],
  ["CCCc1cccc(-c2cc(NC(=O)[C@@H]3CNC(=O)C3)nn2-c2ccc(OCc3ccccc3)cc2)c1", 8.20]
]}

Find pIC50 for `CCCc1cccc(-c2cc(NC(=O)[C@@H]3CNC(=O)C3)nn2-c2cccc(CCC(C)(C)C)c2)c1` on UniProt P13866 and write it down.
7.15

Find pIC50 for `CCCc1cccc(-c2cc(NC(=O)[C@@H]3CNC(=O)C3)nn2-c2ccc(OC)cc2)c1` on UniProt P13866 and write it down.
7.52

----------
Biological target: human SGLT1 (Homo sapiens (Human), UniProt P13866)
Assay: SGLT1 inhibitory activity: 14C-AMG uptake into CHO-K1 cell line stably expressing human SGLT1
Format: cell-based
Conditions: 14C-AMG uptake, CHO-K1 cells stably expressing human SGLT1
pIC50: −log10 of the molar value.
# binarize pIC50: threshold 8 inclusive, high side 1, low side 0

Solved cases below.
{"columns": ["molecule", "experimental.system", "class.assignment"],
 "data": [
  ["O=C1C[C@H](C(=O)Nc2cc(-c3cccc(OC(F)(F)F)c3)n(-c3cccc(F)c3)n2)CN1 [Example 467]", "human SGLT1 (Homo sapiens (Human), UniProt P13866)", 0],
  ["CCCOc1cccc(-n2nc(NC(=O)[C@@H]3CNC(=O)C3)cc2-c2cccc(CO[C@H](C)C(F)(F)F)c2)c1 [Example 453]", "human SGLT1 (Homo sapiens (Human), UniProt P13866)", 1],
  ["COc1ccc(F)c(-n2nc(NC(=O)[C@@H]3CNC(=O)C3)cc2-c2cccc(COCC(F)(F)F)c2)c1 [Example 522]", "human SGLT1 (Homo sapiens (Human), UniProt P13866)", 1],
  ["CCCc1cccc(-c2cc(NC(=O)[C@@H]3CNC(=O)C3)nn2-c2ccccc2C)c1 [Example 261]", "human SGLT1 (Homo sapiens (Human), UniProt P13866)", 1],
  ["CC(C)CSc1cccc(-c2cc(NC(=O)[C@@H]3CNC(=O)C3)nn2-c2ccccc2)c1 [Example 546]", "human SGLT1 (Homo sapiens (Human), UniProt P13866)", 1],
  ["CC(C)Oc1cccc(-n2nc(NC(=O)[C@@H]3CNC(=O)C3)cc2-c2cccc(OC(F)(F)F)c2)c1F [Example 478]", "human SGLT1 (Homo sapiens (Human), UniProt P13866)", 0],
  ["CC(C)OCc1cccc(-c2cc(NC(=O)[C@@H]3CNC(=O)C3)nn2-c2ccccc2)c1 [Example 299]", "human SGLT1 (Homo sapiens (Human), UniProt P13866)", 0],
  ["O=C1NC[C@H](C(=O)Nc2cc(-c3cccc(COCCC(F)(F)F)c3)n(-c3ccccc3)n2)N1 [Example 354]", "human SGLT1 (Homo sapiens (Human), UniProt P13866)", 0],
  ["CCCOc1cccc(-c2cc(NC(=O)[C@@H]3CNC(=O)C3)nn2-c2ccccc2)c1 [Example 284]", "human SGLT1 (Homo sapiens (Human), UniProt P13866)", 0]
]}

Consider the additional molecule presented here.
Answer whether pIC50 of CCOc1ccc(F)c(-n2nc(NC(=O)[C@@H]3CNC(=O)C3)cc2-c2cccc(CO[C@H](C)C(F)(F)F)c2)c1 [Example 463] is greater than or equal to 8.
1

----------
Molecular target: human SGLT1 (Homo sapiens (Human))
Experiment: SGLT1 inhibitory activity: 14C-AMG uptake into CHO-K1 cell line stably expressing human SGLT1
Type: cell-based
Conditions: 14C-AMG uptake, CHO-K1 cells stably expressing human SGLT1
Threshold 0.01 µM. IC50 below it: met. IC50 at it or above: not met.

Solved cases below.
{"columns": ["compound", "experimental.system", "class.assignment"],
 "data": [
  ["CC(C)(C)C(=O)c1cccc(-c2cc(NC(=O)[C@@H]3CNC(=O)C3)nn2-c2ccccc2)c1 [Example 356]", "human SGLT1 (Homo sapiens (Human))", "not met"],
  ["O=C1NC[C@H](C(=O)Nc2cc(-c3cccc(COCC(F)(F)F)c3)n(-c3ccccc3)n2)N1 [Example 349]", "human SGLT1 (Homo sapiens (Human))", "not met"],
  ["CC(C)(C)COc1cccc(-c2cc(NC(=O)[C@H]3CNC(=O)C3)nn2-c2ccccc2)c1 [Example 289]", "human SGLT1 (Homo sapiens (Human))", "met"]
]}

Does O=C1NC[C@@H](C(=O)Nc2cc(-c3cccc(OC(F)(F)F)c3)n(-c3ccccc3)n2)N1 [Example 266] have IC50 strictly under 0.01 µM?
not met

Does CCCc1cccc(-c2cc(NC(=O)[C@H]3CNC(=O)N3CC(F)(F)F)nn2-c2ccccc2)c1 [Example 385] have IC50 strictly under 0.01 µM?
met

Does O=C1C[C@H](C(=O)Nc2cc(-c3cccc(COC(F)(F)F)c3)n(-c3ccccc3)n2)CN1 [Example 399] have IC50 strictly under 0.01 µM?
not met

Does CCCc1cccc(-c2cc(NC(=O)[C@@H]3CNC(=O)C3)nn2-c2ccc(OC(C)C)cc2)c1 [Example 373] have IC50 strictly under 0.01 µM?
met

Does O=C1C[C@H](C(=O)Nc2cc(-c3cc(Cl)cc(COC(C(F)(F)F)C(F)(F)F)c3)n(-c3ccccc3)n2)CN1 [Example 579] have IC50 strictly under 0.01 µM?
not met

All figures here come from patent US8846746B2.
